Test Target: adenylate kinase from T. maritima (Thermotoga maritima, UniProt Q9X1I8)
Sequence (Q9X1I8 whole entry): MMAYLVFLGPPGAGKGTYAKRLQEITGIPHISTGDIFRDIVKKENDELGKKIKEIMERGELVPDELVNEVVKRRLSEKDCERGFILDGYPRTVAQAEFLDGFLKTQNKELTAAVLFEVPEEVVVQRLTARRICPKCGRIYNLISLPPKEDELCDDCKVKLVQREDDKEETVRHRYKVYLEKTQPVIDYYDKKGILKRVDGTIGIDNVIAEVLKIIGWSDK
Run Description: Inhibition of reporter adenylate kinase by Ap5a, ATP detected with luciferin/luciferase
Test Readout: pIC50
Scale explanation: pIC50 corresponds to minus log10 of a concentration expressed in moles per litre.

Sample Nc1ncnc2c1ncn2[C@@H]1O[C@H](COP(=O)(O)OP(=O)(O)OP(=O)(O)OP(=O)(O)OP(=O)(O)OC[C@H]2O[C@@H](n3cnc4c(N)ncnc43)[C@H](O)[C@@H]2O)[C@@H](O)[C@H]1O — what was its pIC50?
5.37
